A collection of compounds and their measured SKOV-3 SI
Tested on: SKOV-3
METHOD_SUMMARY: MTT assay, SKOV-3
Format: cell-based, human
ASSAY_CONTEXT: Selectivity Index = IC50 HDF / IC50 SKOV-3
Description: The cytotoxic activity of oleanolic acid (mother compound, 1, Figure 2) and its 14 derivatives (3a–3n, Figure 2) was tested in vitro using the standard MTT method based on viability assay, e.g., [44] against carcinoma cell lines: SKBR-3, SKOV-3, PC-3, U-87, and one normal cell line: HDF. Human cancer cells: SKBR-3 and SKOV-3 were cultured in McCoy’s Modified Medium; PC-3 was cultured in an F-12K medium; U-87 was cultured in EMEM medium; HDF was cultured in Fibroblast Basal Medium. […]

>  <COMPOUND>
CC(=O)OC1CCC2(C)C(CCC3(C)C2CC=C2C4CC(C)(C)CCC4(C(=O)OCCCCOC(=O)C45CCC(C)(C)CC4C4=CCC6C7(C)CCC(OC(C)=O)C(C)(C)C7CCC6(C)C4(C)CC5)CCC23C)C1(C)C (centres unmarked)

>  <SKOV-3 SI>
1.65

$$$$
>  <COMPOUND>
CC(=O)OC1CCC2(C)C(CCC3(C)C2CC=C2C4CC(C)(C)CCC4(C(=O)OCC=CCOC(=O)C45CCC(C)(C)CC4C4=CCC6C7(C)CCC(OC(C)=O)C(C)(C)C7CCC6(C)C4(C)CC5)CCC23C)C1(C)C (centres unmarked) [Compound 3e]

>  <SKOV-3 SI>
2.26

$$$$

---

System: PC-3
METHOD_SUMMARY: MTT assay, PC-3
Type: cell-based, human
ASSAY_CONTEXT: Selectivity Index = IC50 HDF / IC50 of PC-3
Mark no (0) for B SI values under 1, and yes (1) for everything at or above.

>  <COMPOUND>
CC(=O)OC1CCC2(C)C(CCC3(C)C2CC=C2C4CC(C)(C)CCC4(C(=O)OCCCCCCCOC(=O)C45CCC(C)(C)CC4C4=CCC6C7(C)CCC(OC(C)=O)C(C)(C)C7CCC6(C)C4(C)CC5)CCC23C)C1(C)C (stereo not drawn)

>  <ASSAY_TARGET>
PC-3

>  <LABEL>
no (0)

$$$$
>  <COMPOUND>
CC(=O)OC1CCC2(C)C(CCC3(C)C2CC=C2C4CC(C)(C)CCC4(C(=O)OCCCCCOC(=O)C45CCC(C)(C)CC4C4=CCC6C7(C)CCC(OC(C)=O)C(C)(C)C7CCC6(C)C4(C)CC5)CCC23C)C1(C)C (stereo not drawn)

>  <ASSAY_TARGET>
PC-3

>  <LABEL>
yes (1)

$$$$
>  <COMPOUND>
CC(=O)OC1CCC2(C)C(CCC3(C)C2CC=C2C4CC(C)(C)CCC4(C(=O)OCCCCCCCCOC(=O)C45CCC(C)(C)CC4C4=CCC6C7(C)CCC(OC(C)=O)C(C)(C)C7CCC6(C)C4(C)CC5)CCC23C)C1(C)C (stereo not drawn)

>  <ASSAY_TARGET>
PC-3

>  <LABEL>
yes (1)

$$$$
>  <COMPOUND>
CC1(C)CC[C@]2(C(=O)O)CC[C@]3(C)C(=CC[C@@H]4[C@@]5(C)CC[C@H](O)C(C)(C)[C@@H]5CC[C@]43C)[C@@H]2C1

>  <ASSAY_TARGET>
PC-3

>  <LABEL>
yes (1)

$$$$
>  <COMPOUND>
CC(=O)OC1CCC2(C)C(CCC3(C)C2CC=C2C4CC(C)(C)CCC4(C(=O)OCCCOC(=O)C45CCC(C)(C)CC4C4=CCC6C7(C)CCC(OC(C)=O)C(C)(C)C7CCC6(C)C4(C)CC5)CCC23C)C1(C)C (stereo not drawn)

>  <ASSAY_TARGET>
PC-3

>  <LABEL>
yes (1)

$$$$
>  <COMPOUND>
CC(=O)OC1CCC2(C)C(CCC3(C)C2CC=C2C4CC(C)(C)CCC4(C(=O)OCCCCCCCCCCCOC(=O)C45CCC(C)(C)CC4C4=CCC6C7(C)CCC(OC(C)=O)C(C)(C)C7CCC6(C)C4(C)CC5)CCC23C)C1(C)C (stereo not drawn)

>  <ASSAY_TARGET>
PC-3

>  <LABEL>
yes (1)

$$$$
>  <COMPOUND>
CC(=O)OC1CCC2(C)C(CCC3(C)C2CC=C2C4CC(C)(C)CCC4(C(=O)OCCCCCCOC(=O)C45CCC(C)(C)CC4C4=CCC6C7(C)CCC(OC(C)=O)C(C)(C)C7CCC6(C)C4(C)CC5)CCC23C)C1(C)C (stereo not drawn)

>  <ASSAY_TARGET>
PC-3

>  <LABEL>
yes (1)

$$$$
>  <COMPOUND>
CC(=O)OC1CCC2(C)C(CCC3(C)C2CC=C2C4CC(C)(C)CCC4(C(=O)OCCOC(=O)C45CCC(C)(C)CC4C4=CCC6C7(C)CCC(OC(C)=O)C(C)(C)C7CCC6(C)C4(C)CC5)CCC23C)C1(C)C (stereo not drawn)

>  <ASSAY_TARGET>
PC-3

>  <LABEL>
yes (1)

$$$$
>  <COMPOUND>
CC(=O)OC1CCC2(C)C(CCC3(C)C2CC=C2C4CC(C)(C)CCC4(C(=O)OCCCCCCCCCCCCOC(=O)C45CCC(C)(C)CC4C4=CCC6C7(C)CCC(OC(C)=O)C(C)(C)C7CCC6(C)C4(C)CC5)CCC23C)C1(C)C (stereo not drawn)

>  <ASSAY_TARGET>
PC-3

>  <LABEL>
yes (1)

$$$$
>  <COMPOUND>
CC(=O)OC1CCC2(C)C(CCC3(C)C2CC=C2C4CC(C)(C)CCC4(C(=O)OCCCCCCCCCOC(=O)C45CCC(C)(C)CC4C4=CCC6C7(C)CCC(OC(C)=O)C(C)(C)C7CCC6(C)C4(C)CC5)CCC23C)C1(C)C (stereo not drawn)

>  <ASSAY_TARGET>
PC-3

>  <LABEL>
no (0)

$$$$
>  <COMPOUND>
CC(=O)OC1CCC2(C)C(CCC3(C)C2CC=C2C4CC(C)(C)CCC4(C(=O)OCCCCCCCCCCOC(=O)C45CCC(C)(C)CC4C4=CCC6C7(C)CCC(OC(C)=O)C(C)(C)C7CCC6(C)C4(C)CC5)CCC23C)C1(C)C (stereo not drawn)

>  <ASSAY_TARGET>
PC-3

>  <LABEL>
no (0)

$$$$
>  <COMPOUND>
CC(=O)OC1CCC2(C)C(CCC3(C)C2CC=C2C4CC(C)(C)CCC4(C(=O)OCC=CCOC(=O)C45CCC(C)(C)CC4C4=CCC6C7(C)CCC(OC(C)=O)C(C)(C)C7CCC6(C)C4(C)CC5)CCC23C)C1(C)C (stereo not drawn) [Compound 3f]

>  <ASSAY_TARGET>
PC-3

>  <LABEL>
no (0)

$$$$
